Origin of measurements: patent US20250188153A1

Would you kindly list fold lower neutralization IC50 than against hMPV TN/93-32 for each of these binders?
Biological target: hMPV F protein of hMPV CAN/97-83 (genotype A) (human metapneumovirus, UniProt Q6WB98 19-539)
Sequence (Q6WB98 19-539): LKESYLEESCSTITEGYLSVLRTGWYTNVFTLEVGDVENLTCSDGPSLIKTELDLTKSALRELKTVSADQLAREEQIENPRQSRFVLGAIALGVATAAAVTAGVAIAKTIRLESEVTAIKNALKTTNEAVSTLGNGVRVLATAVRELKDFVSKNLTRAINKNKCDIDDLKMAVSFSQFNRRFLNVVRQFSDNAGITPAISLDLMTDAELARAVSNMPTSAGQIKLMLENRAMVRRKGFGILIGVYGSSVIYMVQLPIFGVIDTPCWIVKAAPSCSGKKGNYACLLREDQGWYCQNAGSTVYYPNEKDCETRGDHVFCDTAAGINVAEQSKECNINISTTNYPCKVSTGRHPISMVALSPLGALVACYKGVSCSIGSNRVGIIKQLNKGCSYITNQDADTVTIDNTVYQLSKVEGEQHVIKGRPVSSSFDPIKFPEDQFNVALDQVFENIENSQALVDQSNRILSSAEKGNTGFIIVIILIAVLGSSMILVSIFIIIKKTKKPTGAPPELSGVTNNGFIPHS
Test: cell-based or functional assay

MPV488 (antibody, V domains shown) VH: EVQLVQSGFEVKKPGASVKVSCKASGYNFNNYGISWVRQAPGQGLEWMGWISAYTGNTNEAQKFQGRVSMTTDTSTSTAYMEVRSLRSDDTAVYYCARDIGSSMFYSYFYGMDVWGQGTTVIVSS VL: SLSVSLGERATINCKSSESVLYNSNNENYLDWYQQKPGQPPKLLIYWASTRASGVPDRFSGSASGTDFTLTISSLQAEDVAVYYCQQYYSTPRTFGQGTKVEIK
≥ 20 fold

Hi! Can you tell me fold lower neutralization IC50 than against hMPV TN/93-32 for each of these binders?
1. MPV86 (antibody, V domains shown) VH: QVQLVQSGAEVKKPGSSVKVSCKASGDTFNDVALSWVRQAPGQGLEWLGGIIPFFGTANYAQRFQDRVTITADASTSTAYLELGGLRSEDTAVYYCARGWSCRNITCFMMGYYFYIMDVWGQGTLVTVSS VL: LSLSPGERATLSCRASQSVGNFLAWYQQKPGQTPRLLIQDASNRATGIPARFSGTGSGTDFTLTISSLEPEDFAVYYCQQRSNWPPTFGPGTKVDIK
2. MPV477 (antibody, V domains shown) VH: EVQLVQSGAEVKKPGASVEVSCKTSGYTFTDYYLHWVRQAPGQGLEWMGWINPRSGGTKYGQKFQGRVTMTRDTSISTAYMDLRGLRSDDTAVYYCARAPLLTVYAVAHRSGENRFDPWGQGTVTVSS VL: QPPSLSGAPGQTVTISCTGSGSNIGAGYDVNWYQCLPGTAPKLLMFDNSNRPSGVPDRFSGSRSGASASLAITGLQAEDEADYYCQSYDSGLSGWVFGGGTKLTVL

a:
≥ 20 fold
≥ 20 fold
